# TARGET UNDER TEST: GIPC2, Q8TF65
# Sequence (Q8TF65 112-203): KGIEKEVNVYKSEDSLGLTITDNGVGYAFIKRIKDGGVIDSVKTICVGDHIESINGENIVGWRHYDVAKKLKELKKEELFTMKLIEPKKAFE
# PROTOCOL NOTES: holdup assay
# Design: key: below the threshold = too weak to quantify, mostly under pKd 3.1 to 4
# SETTINGS: plain residues with an end cap or a label only (N-terminal biotin on a linker: ado-ado)
VALUE KIND: pKd

- BINDER: "RDYTQSSSSL [GRM5, P41594]"
  pKd: "below the threshold"
- BINDER: "GTMFLRETSL [GUCY1A2, P33402]"
  pKd: 4
- BINDER: "RSPVATATSC [DUSP5, Q16690]"
  pKd: 3.6
- BINDER: "PLPPEEESWV [GAS2L2, Q8NHY3]"
  pKd: 4.2
- BINDER: "SSSVNVSSNL [CXCR1, P25024]"
  pKd: "below the threshold"
- BINDER: "TKDKVQETQI [LRRC4, Q9HBW1]"
  pKd: 3.68
- BINDER: "TKEIPNCTSV [SORCS3, Q9UPU3]"
  pKd: 3.83
- BINDER: "EAVTVESTSL [SLC22A11, Q9NSA0]"
  pKd: "below the threshold"
- BINDER: "KSRPENGTVC [TMEM178B, H3BS89]"
  pKd: "below the threshold"
- BINDER: "EPAKETTTNV [SLC2A3, P11169]"
  pKd: "below the threshold"

The binder listed as FLVTEFNVML [DFNB31, Q9P202] has a reported pKd of below the threshold

The binder listed as EKPIDSETKM [SLC1A3, P43003] has a reported pKd of below the threshold

The binder listed as GQNMTVSVVI [PRLHR, P49683] has a reported pKd of below the threshold

The binder listed as WAKEKQHTRL [SLC17A1, Q14916] has a reported pKd of below the threshold

The binder listed as SQDPKKPSRV [CBY2, Q8NA61] has a reported pKd of below the threshold

The binder listed as FVFESRKEIL [TBPL1, P62380] has a reported pKd of below the threshold
